Test system: HBV (HepG2.117 cell line, inducibly HBV producing)
method: Anti-HBV activity, intracellular HBV DNA by real-time PCR in HepG2.117 cell line
Assay type: cell-based, hepatitis B virus
condition info: HepG2.117 cells, 3 days of treatment
result type: EC50 (µM)
Kindly provide the numeric value in µM only, without the unit symbol.

Use these answered entries as a reference point.
Cc1nnnn1-c1ccc(C(C)N2C[C@@H](C)n3nc4c(c3C2=O)CN(C(=O)c2ccc(Cl)c(Cl)c2)[C@H](C)C4)cn1 (single isomer, unassigned) [Compound 27A] ... 0.24
CNC(=O)C1(Oc2ccc(C(C)N3C[C@@H](C)n4nc5c(c4C3=O)CN(C(=O)c3ccc(Cl)c(C#N)c3)[C@H](C)C5)cc2)CC1 (single isomer, unassigned) [Compound 13A] ... 0.037

Please look at the following compound next.
Just so you know, measured EC50 for CC(c1ccc(C(C)(C)O)nc1)N1C[C@@H](C)n2nc3c(c2C1=O)CN(C(=O)c1ccc(Cl)c(Cl)c1)[C@H](C)C3 (single isomer, unassigned) [Compound 2A] came out at 0.099

###

Tested on: HepG2 or HepG2.117 cells
method: Cytotoxicity, ATPlite Luminescence Assay
Assay type: cell-based, human
condition info: 3-days incubation unless marked with *
Quick reference for CC50 among some molecules

CC(c1ccc(-n2cncn2)nc1)N1C[C@@H](C)n2nc3c(c2C1=O)CN(C(=O)c1ccc(Cl)c(Cl)c1)[C@H](C)C3 (single isomer, unassigned) [Compound 5B] ... 28.4 µM

The molecule CC(c1ccc(C2(O)CC2)cc1)N1C[C@@H](C)n2nc3c(c2C1=O)CN(C(=O)c1ccc(Cl)c(C#N)c1)[C@H](C)C3 (single isomer, unassigned) [Compound 14B] on HepG2 or HepG2.117 cells: CC50 was > 50 µM

The molecule C[C@@H]1Cc2nn3c(c2CN1C(=O)c1ccc(Cl)c(C(F)(F)F)c1)C(=O)N([C@@H](C)c1ccc([S@@]2(=O)=NCCC2)nc1)C[C@H]3C (relative stereo) [Compound 30B] on HepG2 or HepG2.117 cells: CC50 was > 50 µM

The molecule CC(c1cnc(C2CC2)cn1)N1C[C@@H](C)n2nc3c(c2C1=O)CN(C(=O)c1ccc(Cl)c(Cl)c1)[C@H](C)C3 (single isomer, unassigned) [Compound 3A] on HepG2 or HepG2.117 cells: CC50 was 33.7 µM

The molecule CC(c1ccc(C(C)(C)O)nc1)N1C[C@@H](C)n2nc3c(c2C1=O)CN(C(=O)c1cc(F)c(Cl)c(F)c1)[C@H](C)C3 (single isomer, unassigned) [Compound 60B] on HepG2 or HepG2.117 cells: CC50 was > 50 µM

The molecule CC(c1ccc(C(C)(C)O)nc1)N1C[C@@H](C)n2nc3c(c2C1=O)CN(C(=O)c1ccc(Cl)c(F)c1)[C@H](C)C3 (single isomer, unassigned) [Compound 59B] on HepG2 or HepG2.117 cells: CC50 was > 50 µM

The molecule CC(c1ccc(C(C)(C)O)cc1)N1C[C@@H](C)n2nc3c(c2C1=O)CN(C(=O)c1ccc(Cl)c(Cl)c1)[C@H](C)C3 (single isomer, unassigned) [Compound 8B] on HepG2 or HepG2.117 cells: CC50 was 18.7 µM

The molecule CC(c1ccn(C(F)F)c(=O)c1)N1C[C@@H](C)n2nc3c(c2C1=O)CN(C(=O)c1ccc(Cl)c(C(F)(F)F)c1)[C@H](C)C3 (single isomer, unassigned) [Compound 49B] on HepG2 or HepG2.117 cells: CC50 was > 50 µM

The molecule C[C@@H]1Cc2nn3c(c2CN1C(=O)c1ccc(Cl)c(C(F)(F)F)c1)C(=O)N([C@H](C)c1ccc([S@](C)(=O)=NC#N)cc1)C[C@H]3C (relative stereo) [Compound 20B] on HepG2 or HepG2.117 cells: CC50 was > 50 µM

###

method: Human liver microsome stability
Assay type: in vitro ADME
condition info: pooled human liver microsomes 0.5 mg/mL, 1 μM compound, NADPH 1 mM, 37° C., 0-60 min
Method: Human Liver Microsome Stability t½ (Min) of Compounds of Formula (I) […] All incubations are performed singularly for each compound. […] The internal standard was added (1:1 supernatant to internal standard solution) and samples were analyzed using standard LC-MS conditions. From a plot of ln peak area ratio (compound peak area/internal standard peak area) against time, the gradient of the line is determined. […]
result type: HLM Metabolism t1/2

CC(c1ccn(C(F)F)c(=O)c1)N1C[C@@H](C)n2nc3c(c2C1=O)CN(C(=O)c1ccc(Cl)c(C(F)(F)F)c1)[C@H](C)C3 (single isomer, unassigned) [Compound 49A] ... 79.2 min

Just so you know, measured HLM Metabolism t1/2 for CC(c1ccc(N2CCCS2(=O)=O)nc1)N1C[C@@H](C)n2nc3c(c2C1=O)CN(C(=O)c1ccc(Cl)c(C(F)(F)F)c1)[C@H](C)C3 (single isomer, unassigned) [Compound 28A] came out at 50.1 min

###

method: Cytotoxicity, ATPlite Luminescence Assay
Type: cell-based, human
condition info: human, HepG2 or HepG2.117 cells, 3-days incubation unless marked with *
Description: Cytotoxicity of the compounds was tested using HepG2 or HepG2.117 cells, incubated for 3 or 4 days in the presence of compounds. The viability of the cells was assessed using the PERKIN ELMER ATPlite Luminescence Assay System.”
Quick reference for CC50 at 3 days among some molecules

CC(c1ccc(C(C)(C)O)nc1)N1C[C@@H](C)n2nc3c(c2C1=O)CN(C(=O)c1ccc(Cl)c(F)c1F)[C@H](C)C3 (single isomer, unassigned) [Compound 61A] ... > 50 µM
CNC(=O)C1(Oc2ccc(C(C)N3C[C@@H](C)n4nc5c(c4C3=O)CN(C(=O)c3ccc(Cl)c(C#N)c3)[C@H](C)C5)cc2)CC1 (single isomer, unassigned) [Compound 13A] ... > 50 µM
CNC(=O)C(c1ccc(OC(F)F)cc1)N1C[C@@H](C)n2nc3c(c2C1=O)CN(C(=O)c1ccc(Cl)c(Cl)c1)[C@H](C)C3 (single isomer, unassigned) [Compound 23A] ... 32.1 µM
C[C@@H]1Cc2nn3c(c2CN1C(=O)c1ccc(Cl)c(Cl)c1)C(=O)N([C@H](C)c1ccc([S@@](C)(=N)=O)cc1)C[C@H]3C (relative stereo) [Compound 18B] ... > 50 µM

Please look at the following molecule next.
Just so you know, measured CC50 at 3 days for CC(c1ccn(C(C)C)c(=O)c1)N1C[C@@H](C)n2nc3c(c2C1=O)CN(C(=O)c1ccc(Cl)c(C(F)(F)F)c1)[C@H](C)C3 (single isomer, unassigned) [Compound 47A] came out at > 50 µM

###

method: Human liver microsome stability
Format: in vitro ADME
condition info: pooled human liver microsomes 0.5 mg/mL, 1 μM compound, NADPH 1 mM, 37° C., 0-60 min
result type: HLM Metabolism t1/2

Use these answered entries as a reference point.
Cc1ncnn1-c1ccc(C(C)N2C[C@@H](C)n3nc4c(c3C2=O)CN(C(=O)c2ccc(Cl)c(Cl)c2)[C@H](C)C4)cn1 (relative stereo) [Compound 25A] ... >3 h
Cc1ccc(C(C)N2C[C@@H](C)n3nc4c(c3C2=O)CN(C(=O)c2ccc(Cl)c(Cl)c2)[C@H](C)C4)nn1 (single isomer, unassigned) [Compound 6A] ... 1.18 h

Just so you know, measured HLM Metabolism t1/2 for CC(c1cnc(C(F)(F)F)nc1)N1C[C@@H](C)n2nc3c(c2C1=O)CN(C(=O)c1ccc(Cl)c(Cl)c1)[C@H](C)C3 (single isomer, unassigned) [Compound 34B] came out at >3 h

###

System: HBV (HepG2.117 cell line, inducibly HBV producing)
method: Anti-HBV activity, intracellular HBV DNA by real-time PCR in HepG2.117 cell line
Type: cell-based, hepatitis B virus
condition info: HepG2.117 cells, 3 days of treatment
# fulfilled = EC50 below 0.02 µM (exclusive); not fulfilled = EC50 at/above 0.02 µM

Reference set, count: 7
CNS(=O)(=O)c1ccc(C(C)N2C[C@@H](C)n3nc4c(c3C2=O)CN(C(=O)c2ccc(Cl)c(Cl)c2)[C@H](C)C4)cc1 (single isomer, unassigned) [Compound 17A] ... not fulfilled
CC(c1ccc(C2(O)CC2)cc1)N1C[C@@H](C)n2nc3c(c2C1=O)CN(C(=O)c1ccc(Cl)c(C#N)c1)[C@H](C)C3 (single isomer, unassigned) [Compound 14B] ... fulfilled
CC(c1cnc(C(F)(F)F)cn1)N1C[C@@H](C)n2nc3c(c2C1=O)CN(C(=O)c1ccc(Cl)c(Cl)c1)[C@H](C)C3 (single isomer, unassigned) [Compound 7B] ... not fulfilled
Cc1ccc(C(C)N2C[C@@H](C)n3nc4c(c3C2=O)CN(C(=O)c2ccc(Cl)c(Cl)c2)[C@H](C)C4)nn1 (single isomer, unassigned) ... not fulfilled
CC(c1ccc(C(C)(C)O)cc1)N1C[C@@H](C)n2nc3c(c2C1=O)CN(C(=O)c1ccc(Cl)c(Cl)c1)[C@H](C)C3 (single isomer, unassigned) [Compound 8A] ... not fulfilled
CC(c1ccnc(OC(F)F)c1)N1C[C@@H](C)n2nc3c(c2C1=O)CN(C(=O)c1ccc(Cl)c(C(F)(F)F)c1)[C@H](C)C3 (single isomer, unassigned) [Compound 50A] ... not fulfilled
CC(c1cnn(C(C)C)c(=O)c1)N1C[C@@H](C)n2nc3c(c2C1=O)CN(C(=O)c1ccc(Cl)c(C(F)(F)F)c1)[C@H](C)C3 (single isomer, unassigned) [Compound 53A] ... not fulfilled

We now examine a further compound.
q: Dear reviewer, please state whether CC(c1ccc(C(C)(C)O)nc1)N1C[C@@H](C)n2nc3c(c2C1=O)CN(C(=O)c1ccc(Cl)c(Cl)c1)[C@H](C)C3 (single isomer, unassigned) [Compound 2B] has EC50 strictly beneath 0.02 µM.
a: fulfilled

The measurements presented in this section are drawn from patent US20240287070A1.
